Origin of the recorded values: the supplement of paper PMC13380429

Test system: Vero E6
ASSAY_COMMENT: cell viability relative to DMSO; higher = less toxic
CONDITION_DESCRIPTION: 72 h; 1000 nM
ENDPOINT_LABEL: cell viability (%)

- MOLECULE: "C[C@@]1(F)[C@H](O)[C@@H](CO)O[C@H]1n1ccc(N)nc1=O"
  TEST_RESULT: 92.5
- MOLECULE: "O=S(=O)(NCC1CC1)c1ccc(Nc2nccc(N3CCCc4cc(O)ccc43)n2)cc1"
  TEST_RESULT: 98.3
- MOLECULE: "C[C@]12Cc3c[nH]nc3C[C@@H]1CC[C@@H]1[C@@H]2CC[C@@]2(C)[C@H]1CC[C@]2(C)O"
  TEST_RESULT: 106
- MOLECULE: "C=C[C@@]1(C)CC(=O)[C@]2(O)[C@@]3(C)[C@@H](O)CCC(C)(C)[C@@H]3[C@H](OC(=O)CCN(C)C)[C@H](OC(C)=O)[C@@]2(C)O1 [colforsin-daproate]"
  TEST_RESULT: 90.5
- MOLECULE: "Cc1ccc(S(N)(=O)=O)cc1 [para-toluenesulfonamide]"
  TEST_RESULT: 99.2
- MOLECULE: "CCCC(=O)O[C@]1(C(=O)CO)CC[C@H]2[C@@H]3CCC4=CC(=O)CC[C@]4(C)[C@H]3[C@@H](O)C[C@@]21C [hydrocortisone-butyrate]"
  TEST_RESULT: 102
- MOLECULE: "O=S(=O)(c1ccccc1)c1cnc2c(N3CCNCC3)cccc2c1"
  TEST_RESULT: 97.3
- MOLECULE: "N#Cc1ccc(-c2csc(NN=C3CCCC3)n2)cc1"
  TEST_RESULT: 99.2
